B1: Ribonuclease, P00648 (parent)
chain: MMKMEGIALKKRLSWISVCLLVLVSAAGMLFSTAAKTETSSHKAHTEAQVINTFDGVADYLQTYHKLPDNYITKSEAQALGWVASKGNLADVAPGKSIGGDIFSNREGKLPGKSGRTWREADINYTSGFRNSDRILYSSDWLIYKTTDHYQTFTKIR

# Variants of: B1
# measurement-parameters: Bacillus amyloliquefaciens; pH 6.3; 25 °C; Urea; Fluorescence; MES 1.00 M; NaCl 613 mM; reversible: yes; structure 1BNI; whole UniProt chain shown
Label rule, in plain words: unfolding free energy of 9 kcal/mol and up is true, under 9 kcal/mol is false.

Record excerpt, results attached:
variant-id | label
Y64F | true
Y60A | false
Y60F | true

Pending variant:
Could you tell me if the measured unfolding free energy of Y60A Y64A reaches 9 kcal/mol or more? false
